From: paper PMC6493668

- target system: T1, hepatitis A virus (HAV) full particle, genotype TZ84 (HAV IA genotype) (hepatitis A virus, genotype TZ84 (HAV …))
- T1 chain 1: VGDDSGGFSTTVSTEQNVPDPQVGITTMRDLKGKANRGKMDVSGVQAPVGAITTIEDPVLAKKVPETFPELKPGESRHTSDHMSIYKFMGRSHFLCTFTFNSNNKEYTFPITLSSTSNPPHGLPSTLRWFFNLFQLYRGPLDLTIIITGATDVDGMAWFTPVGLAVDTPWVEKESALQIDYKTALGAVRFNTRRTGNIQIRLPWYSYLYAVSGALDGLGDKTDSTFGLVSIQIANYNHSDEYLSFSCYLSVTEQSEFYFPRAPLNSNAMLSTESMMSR
- T1 chain 2: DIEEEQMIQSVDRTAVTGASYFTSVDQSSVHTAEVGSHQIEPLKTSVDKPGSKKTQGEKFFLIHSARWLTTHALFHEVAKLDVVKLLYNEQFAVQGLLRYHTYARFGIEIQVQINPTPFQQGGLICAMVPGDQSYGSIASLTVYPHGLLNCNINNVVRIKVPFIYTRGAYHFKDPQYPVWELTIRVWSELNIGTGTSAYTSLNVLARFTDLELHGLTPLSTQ
- T1 chain 3: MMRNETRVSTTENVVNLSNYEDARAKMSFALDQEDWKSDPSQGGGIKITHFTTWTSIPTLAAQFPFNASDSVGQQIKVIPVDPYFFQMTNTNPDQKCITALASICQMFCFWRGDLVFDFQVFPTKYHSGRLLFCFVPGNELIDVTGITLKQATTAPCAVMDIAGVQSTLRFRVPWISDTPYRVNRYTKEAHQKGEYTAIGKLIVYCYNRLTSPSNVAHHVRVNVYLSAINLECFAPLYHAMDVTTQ
- protocol: SPR
Would you mind telling me the reported koff of each entry?
Only the number, expressed in s⁻¹, is required.

q: koff for F6 Fab (fragment of antigen binding of the neutralizing monoclonal antibody F6) (Fab, V domains shown) VH: EVKLVESGGGLVKPGGSLKLSCAASMYNFQHYGMSWVRQTPEKRLEWVATIQTNATYTYYPDSVKGRFTISRDNARNILYLQMSSLRSGDTAMYYCARRDNIECHYYFDYWGQGTTLTVSS VL: DIVLTQSPAIMSASPGERVTMTCSAHQYVSYMHWYQQKSGTSPKRWIYDTSRLADAIPQRFSGRGSGTSYSLTISSMEAEDAATYYCQQWQSNPYTFGGGTKLEIK ?
a: 0.000134

q: koff for F9 Fab (fragment of antigen binding of the neutralizing monoclonal antibody F9) (Fab, V domains shown) VH: EVKLVESGGGLVKPGGSLKLSCAASAFTITTYGMSWVRQTPEKRLEWVATITAGGSYTYYPDSVKGRFTISRDNAKNTLYLQMSSLRSGDTAMYYCARKVTSVAEYYFDYWGQGTTLTVSS VL: DIVLTQSPAIMSASPGEKVTMTCSATSGLSYIHWYQQKSGTSPKRWIYDTSKLAFGAPARFSGSGSGTSYSLTISSMEAEDAATYYCQQWDVNPYTFGGGTKLEIK ?
a: 0.000537

q: koff for F7 Fab (fragment of antigen binding of the neutralizing monoclonal antibody F7) (Fab, V domains shown) VH: EVKLVESGGGLVKPGGSLKLSCAASIHTFNCYGMSWVRQTPEKGLEWVATIDAASSYTYYPDSVKGRFTISRDNAKNTLYLQMSSLRSGDTAMYYCARRDNTTAQYYFDYWGQGTTLTVSS VL: DIVLTQSPAIMSASPGEKVTMTCSAASSVSYIHWYQQKSGTSPKRWIYDTSRLAFGVPTRFSGSGSGTSYSLTISSMEAEDAATYYCQQWSTNPYTFGGGTKLEIK ?
a: 0.000743
